# experimentalSystem: B-raf kinase (Homo sapiens)
# Construct: made in house; host or cells: Sf9 insect cells (baculovirus)
# Sequence (P15056 whole entry): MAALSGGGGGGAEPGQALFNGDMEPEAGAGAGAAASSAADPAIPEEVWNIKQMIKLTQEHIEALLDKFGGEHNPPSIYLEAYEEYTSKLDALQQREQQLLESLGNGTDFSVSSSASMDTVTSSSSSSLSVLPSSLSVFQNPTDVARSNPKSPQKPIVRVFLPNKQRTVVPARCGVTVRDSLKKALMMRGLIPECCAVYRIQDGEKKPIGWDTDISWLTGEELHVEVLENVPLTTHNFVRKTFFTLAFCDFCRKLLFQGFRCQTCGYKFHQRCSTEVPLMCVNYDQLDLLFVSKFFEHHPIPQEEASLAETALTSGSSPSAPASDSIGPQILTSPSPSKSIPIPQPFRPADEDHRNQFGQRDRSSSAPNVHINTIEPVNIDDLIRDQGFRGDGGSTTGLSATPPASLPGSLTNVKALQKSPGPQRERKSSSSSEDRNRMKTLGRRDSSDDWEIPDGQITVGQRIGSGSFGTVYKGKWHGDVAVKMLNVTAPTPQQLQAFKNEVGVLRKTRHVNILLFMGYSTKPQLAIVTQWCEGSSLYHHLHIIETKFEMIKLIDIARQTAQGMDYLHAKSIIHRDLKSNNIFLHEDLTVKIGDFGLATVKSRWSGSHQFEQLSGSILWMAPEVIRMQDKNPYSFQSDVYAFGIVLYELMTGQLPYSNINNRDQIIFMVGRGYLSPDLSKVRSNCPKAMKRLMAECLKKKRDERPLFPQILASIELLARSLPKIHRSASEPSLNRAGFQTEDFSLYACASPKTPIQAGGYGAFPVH
# protocol: in vitro Raf Kinase Assay (33P-phosphate incorporation into GST-kdMEK)
# Type: biochemical
# conditionLabel: human recombinant Raf protein, substrate GST-kdMEK, 33P-ATP, 25° C., 90 minutes; read-out: IC50 (concentration of test compound required to inhibit 50% of the B-raf kinase activity)

compound | IC50
CONC(=O)c1cc(Oc2ccc(NC(=O)Nc3ccc(Cl)cc3)cc2)ccn1 [Compound 12] | < 1000 nM
CONC(=O)c1cc(Oc2ccc(NC(=O)Nc3ccccc3)cc2)ccn1 [Compound 15] | < 1000 nM
O=C(Nc1ccc(Oc2ccnc(C(=O)O)c2)cc1)Nc1ccc(Cl)c(C(F)(F)F)c1 [Compound 4] | < 10000 nM
CCN(CC)C(=O)CONC(=O)c1cc(Oc2ccc(NC(=O)Nc3ccc(Cl)c(C(F)(F)F)c3)cc2)ccn1 [Compound 10] | < 1000 nM
CONC(=O)c1cc(Oc2ccc(NC(=O)Nc3ccc(Cl)c(C(F)(F)F)c3)cc2)ncn1 [Compound 26] | < 1000 nM
CCCONC(=O)c1cc(Oc2ccc(NC(=O)Nc3ccc(Cl)c(C(F)(F)F)c3)cc2)ccn1 [Compound 6] | < 1000 nM
CNC(=O)c1ncnc(Oc2ccc(NC(=O)Nc3ccc(Cl)c(C(F)(F)F)c3)cc2)n1 [Compound 28] | < 1000 nM
CN(C)CCONC(=O)c1cc(Oc2ccc(NC(=O)Nc3ccc(Cl)c(C(F)(F)F)c3)cc2)ccn1 [Compound 9] | < 1000 nM
CCNC(=O)c1cc(Oc2ccc(NC(=O)c3ccc(Cl)cc3)cc2)ccn1 [Compound 20] | < 10000 nM
CCN(CC)CCONC(=O)c1cc(Oc2ccc(NC(=O)Nc3ccc(Cl)c(C(F)(F)F)c3)cc2)ccn1 [Compound 8] | < 1000 nM
